B1: TRIB1 (parent)
chain: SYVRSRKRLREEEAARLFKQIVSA

Variants of: B1
assay.remarks: protein stability index of a GFP-peptide fusion (GPS, HEK-293T) (PSI 1-6); higher = more stable;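 also: lentivirally expressed fusions sorted by FACS into six bins by GFP to DsRed ratio, PSI derived from sequencing read proportions per bin multiplied by bin number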
conditions: c terminus: a fixed tail appended
Would you mind labelling by protein stability index? At or over 2 is fulfilled, under is not fulfilled.

>>> class_name("SYVRSRKRDREEEAARLFKQIVSA [L9D]")
"fulfilled"
>>> class_name("SYVRSRKRLAEEEAARLFKQIVSA [R10A]")
"fulfilled"
>>> class_name("SYVRSRKRLREEEAARLFKQNVSA [I21N]")
"fulfilled"
>>> class_name("SYVRSRKRLREYEAARLFKQIVSA [E12Y]")
"fulfilled"
>>> class_name("SYVRSRKRLREELAARLFKQIVSA [E13L]")
"fulfilled"
>>> class_name("SYVRSRKRLREEEAARLFKQIVSD [A24D]")
"fulfilled"
>>> class_name("SWVRSRKRLREEEAARLFKQIVSA [Y2W]")
"not fulfilled"
>>> class_name("SYVRSRKRLREEEAARLTKQIVSA [F18T]")
"fulfilled"
>>> class_name("SYIRSRKRLREEEAARLFKQIVSA [V3I]")
"not fulfilled"
>>> class_name("SYVRSRKRLREEEAARLFKKIVSA [Q20K]")
"fulfilled"
>>> class_name("SYVRSRKRLREEEMARLFKQIVSA [A14M]")
"not fulfilled"
>>> class_name("SYVRSRKRLREVEAARLFKQIVSA [E12V]")
"not fulfilled"
>>> class_name("SYVRSQKRLREEEAARLFKQIVSA [R6Q]")
"not fulfilled"
>>> class_name("SYVRSRKRTREEEAARLFKQIVSA [L9T]")
"fulfilled"
>>> class_name("SYVRSRKRLREEEAARPFKQIVSA [L17P]")
"fulfilled"
>>> class_name("SYVRSRKRAREEEAARLFKQIVSA [L9A]")
"not fulfilled"
>>> class_name("SYVQSRKRLREEEAARLFKQIVSA [R4Q]")
"fulfilled"
>>> class_name("SYVRSRCRLREEEAARLFKQIVSA [K7C]")
"fulfilled"
>>> class_name("SYVRSRKRLREEEAAGLFKQIVSA [R16G]")
"fulfilled"
>>> class_name("SYVRSRKRLREEEAARLFKQIVSF [A24F]")
"fulfilled"
